# System: canine cardiac myofibrillar Ca++-dependent Mg++-ATPase
# ASSAY COMMENT: Measurement of myofibrillar Ca++-dependent Mg++-ATPase activity on canine cardiac myofibrils
# Format: biochemical
# DETAILS: 30 μM; pCa=5.47; pH 7.0, 21° C.
Known max (percent change of maximal ATPase activity) of a selection of compounds
MEASURED ENDPOINT: max (percent change of maximal ATPase activity) (%)

[
  {
    "COMPOUND": "CC1SC(=O)NN=C1c1ccc2c(c1)C(=NNC(=N)N)C(=O)N2 (stereo not shown) [Example 12]",
    "RESULT NUMBER": -1
  },
  {
    "COMPOUND": "COc1ccc(NN=C2C(=O)Nc3ccc(C4=NNC(=O)SC4C)cc32)cc1 (stereo not shown) [Example 28]",
    "RESULT NUMBER": 20
  },
  {
    "COMPOUND": "CC1SC(=O)NN=C1c1ccc2c(c1)C(=NNc1c(F)c(F)c(F)c(F)c1F)C(=O)N2 (stereo not shown) [Example 32]",
    "RESULT NUMBER": -1
  },
  {
    "COMPOUND": "CC1SC(=O)NN=C1c1ccc2c(c1)C(=Nc1ccc(N(C)C)cc1)C(=O)N2 (stereo not shown) [Example 14]",
    "RESULT NUMBER": 0
  }
]

###

Each item that follows carries a reported H.R..
# System: anaesthetised dog
# ASSAY COMMENT: Cardiotonic activity in the dog (haemodynamics)
# Type: in vivo, dog (male Beagle)
# DETAILS: i.v., 1.0 mg/kg
MEASURED ENDPOINT: H.R.

[
  {
    "COMPOUND": "CC1SC(=O)NN=C1c1ccc2c(c1)C(=NO)C(=O)N2 (centres unmarked)",
    "STUDY SYSTEM": "anaesthetised dog",
    "RESULT": "+55%"
  },
  {
    "COMPOUND": "CC1SC(=O)NN=C1c1ccc2c(c1)C(=NNc1ccccc1)C(=O)N2 (centres unmarked)",
    "STUDY SYSTEM": "anaesthetised dog",
    "RESULT": "+19 ± 16%"
  },
  {
    "COMPOUND": "CC1SC(=O)NN=C1c1ccc2c(c1)C(=Cc1ccccc1O)C(=O)N2 (centres unmarked)",
    "STUDY SYSTEM": "anaesthetised dog",
    "RESULT": "+22 ± 5%"
  },
  {
    "COMPOUND": "COC(=S)NN=C1C(=O)Nc2ccc(C3=NNC(=O)SC3C)cc21 (centres unmarked)",
    "STUDY SYSTEM": "anaesthetised dog",
    "RESULT": "+93 ± 7%"
  },
  {
    "COMPOUND": "CON=C1C(=O)Nc2ccc(C3=NNC(=O)SC3C)cc21 (centres unmarked)",
    "STUDY SYSTEM": "anaesthetised dog",
    "RESULT": "+55 ± 21%"
  }
]

###

# Test system: canine cardiac myofibrillar Ca++-dependent Mg++-ATPase
# ASSAY COMMENT: Measurement of myofibrillar Ca++-dependent Mg++-ATPase activity on canine cardiac myofibrils
# Assay type: biochemical
# DETAILS: 30 μM; pCa=5.47; pH 7.0, 21° C.
The entries below come with measured max (percent change of maximal ATPase activity) values attached.
MEASURED ENDPOINT: max (percent change of maximal ATPase activity) (%)

[
  {
    "COMPOUND": "Cc1ccc(NN=C2C(=O)Nc3ccc(C4=NNC(=O)SC4C)cc32)cc1 (stereo not drawn)",
    "STUDY SYSTEM": "canine cardiac myofibrillar Ca++-dependent Mg++-ATPase",
    "RESULT NUMBER": -42
  },
  {
    "COMPOUND": "CC1SC(=O)NN=C1c1ccc2c(c1)C(=NNc1ccc(C(C)(C)C)cc1)C(=O)N2 (stereo not drawn)",
    "STUDY SYSTEM": "canine cardiac myofibrillar Ca++-dependent Mg++-ATPase",
    "RESULT NUMBER": -2
  },
  {
    "COMPOUND": "CC1SC(=O)NN=C1c1ccc2c(c1)C(=NNc1ccc(Cl)c(Cl)c1)C(=O)N2 (stereo not drawn)",
    "STUDY SYSTEM": "canine cardiac myofibrillar Ca++-dependent Mg++-ATPase",
    "RESULT NUMBER": -1
  },
  {
    "COMPOUND": "CC1SC(=O)NN=C1c1ccc2c(c1)C(=NNc1ccc(F)cc1)C(=O)N2 (stereo not drawn)",
    "STUDY SYSTEM": "canine cardiac myofibrillar Ca++-dependent Mg++-ATPase",
    "RESULT NUMBER": 28
  },
  {
    "COMPOUND": "CC1SC(=O)NN=C1c1ccc2c(c1)C(=Cc1cccnc1)C(=O)N2 (stereo not drawn)",
    "STUDY SYSTEM": "canine cardiac myofibrillar Ca++-dependent Mg++-ATPase",
    "RESULT NUMBER": -14
  },
  {
    "COMPOUND": "CC1SC(=O)NN=C1c1ccc2c(c1)C(=NNCc1ccccc1)C(=O)N2 (stereo not drawn)",
    "STUDY SYSTEM": "canine cardiac myofibrillar Ca++-dependent Mg++-ATPase",
    "RESULT NUMBER": 21
  },
  {
    "COMPOUND": "CC1SC(=O)NN=C1c1ccc2c(c1)C(=Cc1ccccn1)C(=O)N2 (stereo not drawn)",
    "STUDY SYSTEM": "canine cardiac myofibrillar Ca++-dependent Mg++-ATPase",
    "RESULT NUMBER": -13
  },
  {
    "COMPOUND": "CC1SC(=O)NN=C1c1ccc2c(c1)C(=NNc1ccc(C(F)(F)F)cc1)C(=O)N2 (stereo not drawn)",
    "STUDY SYSTEM": "canine cardiac myofibrillar Ca++-dependent Mg++-ATPase",
    "RESULT NUMBER": 11
  },
  {
    "COMPOUND": "CC1SC(=O)NN=C1c1ccc2c(c1)C(=NNc1ccc(C(=O)O)cc1)C(=O)N2 (stereo not drawn)",
    "STUDY SYSTEM": "canine cardiac myofibrillar Ca++-dependent Mg++-ATPase",
    "RESULT NUMBER": 5
  },
  {
    "COMPOUND": "CC1SC(=O)NN=C1c1ccc2c(c1)C(=Cc1ccccc1O)C(=O)N2 (stereo not drawn)",
    "STUDY SYSTEM": "canine cardiac myofibrillar Ca++-dependent Mg++-ATPase",
    "RESULT NUMBER": -16
  },
  {
    "COMPOUND": "CC1SC(=O)NN=C1c1ccc2c(c1)C(=Nc1ccccc1)C(=O)N2 (stereo not drawn)",
    "STUDY SYSTEM": "canine cardiac myofibrillar Ca++-dependent Mg++-ATPase",
    "RESULT NUMBER": -2
  },
  {
    "COMPOUND": "CC1SC(=O)NN=C1c1ccc2c(c1)C(=NNc1ccccn1)C(=O)N2.Cl (stereo not drawn)",
    "STUDY SYSTEM": "canine cardiac myofibrillar Ca++-dependent Mg++-ATPase",
    "RESULT NUMBER": 0
  },
  {
    "COMPOUND": "CC1SC(=O)NN=C1c1ccc2c(c1)C(Nc1ccccc1)C(=O)N2.Cl (stereo not drawn)",
    "STUDY SYSTEM": "canine cardiac myofibrillar Ca++-dependent Mg++-ATPase",
    "RESULT NUMBER": 2
  },
  {
    "COMPOUND": "CC1SC(=O)NN=C1c1ccc2c(c1)C(=NOc1ccccc1)C(=O)N2 (stereo not drawn)",
    "STUDY SYSTEM": "canine cardiac myofibrillar Ca++-dependent Mg++-ATPase",
    "RESULT NUMBER": 8
  },
  {
    "COMPOUND": "COC(=O)NN=C1C(=O)Nc2ccc(C3=NNC(=O)SC3C)cc21 (stereo not drawn)",
    "STUDY SYSTEM": "canine cardiac myofibrillar Ca++-dependent Mg++-ATPase",
    "RESULT NUMBER": 2
  },
  {
    "COMPOUND": "CC1SC(=O)NN=C1c1ccc2c(c1)C(=NN(C)c1ccccc1)C(=O)N2 (stereo not drawn)",
    "STUDY SYSTEM": "canine cardiac myofibrillar Ca++-dependent Mg++-ATPase",
    "RESULT NUMBER": 17
  },
  {
    "COMPOUND": "CC1SC(=O)NN=C1c1ccc2c(c1)C(=NNc1cccnc1)C(=O)N2 (stereo not drawn)",
    "STUDY SYSTEM": "canine cardiac myofibrillar Ca++-dependent Mg++-ATPase",
    "RESULT NUMBER": 24
  },
  {
    "COMPOUND": "CC1SC(=O)NN=C1c1ccc2c(c1)C(=NN)C(=O)N2 (stereo not drawn)",
    "STUDY SYSTEM": "canine cardiac myofibrillar Ca++-dependent Mg++-ATPase",
    "RESULT NUMBER": -3
  },
  {
    "COMPOUND": "CC1SC(=O)NN=C1c1ccc2c(c1)C(=NNC(=O)c1ccncc1)C(=O)N2 (stereo not drawn)",
    "STUDY SYSTEM": "canine cardiac myofibrillar Ca++-dependent Mg++-ATPase",
    "RESULT NUMBER": 3
  },
  {
    "COMPOUND": "CC1SC(=O)NN=C1c1ccc2c(c1)C(=NNC1=NCCN1)C(=O)N2 (stereo not drawn)",
    "STUDY SYSTEM": "canine cardiac myofibrillar Ca++-dependent Mg++-ATPase",
    "RESULT NUMBER": 2
  }
]
